In this section, each of the variants is paired with its reported protein stability index.
B1: TPD52L1 (parent)
chain: ISKKFGDMSYSIRHSISMPAMRNS

variants of: B1; assay: protein stability index of a GFP-peptide fusion (GPS, HEK-293T) (PSI 1-6); higher = more stable; details: c terminus: a fixed tail appended;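 also: lentivirally expressed fusions sorted by FACS into six bins by GFP to DsRed ratio, PSI derived from sequencing read proportions per bin multiplied by bin number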

- monomer_sequence: "ISGKFGDMSYSIRHSISMPAMRNS [K3G]"
  protein stability index: 2.25
- monomer_sequence: "ISKKFGDMSYSIRHSISMPAYRNS [M21Y]"
  protein stability index: 2.46
- monomer_sequence: "ISKKFGDMSYSIRHSISMPATRNS [M21T]"
  protein stability index: 2.49
- monomer_sequence: "ISKKFGDRSYSIRHSISMPAMRNS [M8R]"
  protein stability index: 2.53
- monomer_sequence: "ISKKFGDMSYSIVHSISMPAMRNS [R13V]"
  protein stability index: 2.6
- monomer_sequence: "ISKKFGDMSYSIRHSISMHAMRNS [P19H]"
  protein stability index: 2.01
- monomer_sequence: "ISKKFVDMSYSIRHSISMPAMRNS [G6V]"
  protein stability index: 2.15
- monomer_sequence: "ISKKFGKMSYSIRHSISMPAMRNS [D7K]"
  protein stability index: 2.58
- monomer_sequence: "IDKKFGDMSYSIRHSISMPAMRNS [S2D]"
  protein stability index: 2.94
- monomer_sequence: "ISKKFGDGSYSIRHSISMPAMRNS [M8G]"
  protein stability index: 2.31
- monomer_sequence: "ISKKFGDMSYSIRHSISMRAMRNS [P19R]"
  protein stability index: 1.9
- monomer_sequence: "ISKKFGDQSYSIRHSISMPAMRNS [M8Q]"
  protein stability index: 2.85
- monomer_sequence: "ISKKFGDMSYSIRHFISMPAMRNS [S15F]"
  protein stability index: 1.42
- monomer_sequence: "IGKKFGDMSYSIRHSISMPAMRNS [S2G]"
  protein stability index: 2.88
- monomer_sequence: "ISKKFGDMPYSIRHSISMPAMRNS [S9P]"
  protein stability index: 2.03
- monomer_sequence: "ISKKFGDMQYSIRHSISMPAMRNS [S9Q]"
  protein stability index: 2.31
- monomer_sequence: "ISKMFGDMSYSIRHSISMPAMRNS [K4M]"
  protein stability index: 2.1
- monomer_sequence: "ISKKFGDMSYSIRHGISMPAMRNS [S15G]"
  protein stability index: 2.38
- monomer_sequence: "ISKKFGDMSYSIRHSISMPAMRNY [S24Y]"
  protein stability index: 1.77
- monomer_sequence: "ISKKFGDMSYSIRHSISMPALRNS [M21L]"
  protein stability index: 2.27
- monomer_sequence: "ISKKFGDMSYWIRHSISMPAMRNS [S11W]"
  protein stability index: 1.67
- monomer_sequence: "ISKKFGDMSYSIRHSILMPAMRNS [S17L]"
  protein stability index: 1.8
- monomer_sequence: "ISKKFGDMSYSIRHSISMPAMRHS [N23H]"
  protein stability index: 2.19
- monomer_sequence: "INKKFGDMSYSIRHSISMPAMRNS [S2N]"
  protein stability index: 2.37
- monomer_sequence: "ISKKFGDMEYSIRHSISMPAMRNS [S9E]"
  protein stability index: 2.34
- monomer_sequence: "ISKTFGDMSYSIRHSISMPAMRNS [K4T]"
  protein stability index: 2.48
- monomer_sequence: "ISKKFGDMSYSIRHSISMPACRNS [M21C]"
  protein stability index: 3.31
- monomer_sequence: "ISKKFGDYSYSIRHSISMPAMRNS [M8Y]"
  protein stability index: 1.54
- monomer_sequence: "ISKKFGDMSYSIRCSISMPAMRNS [H14C]"
  protein stability index: 2.73
- monomer_sequence: "DSKKFGDMSYSIRHSISMPAMRNS [I1D]"
  protein stability index: 3.33
- monomer_sequence: "ISKKFIDMSYSIRHSISMPAMRNS [G6I]"
  protein stability index: 1.6
- monomer_sequence: "ISKKFGDMSYSIRHSISMPRMRNS [A20R]"
  protein stability index: 2.24
- monomer_sequence: "ISKKFGDMSYSIRGSISMPAMRNS [H14G]"
  protein stability index: 1.88
- monomer_sequence: "ISKKFGDMSYSIRKSISMPAMRNS [H14K]"
  protein stability index: 2.69
- monomer_sequence: "IKKKFGDMSYSIRHSISMPAMRNS [S2K]"
  protein stability index: 2.74
- monomer_sequence: "ISKKFGDMSYSIRTSISMPAMRNS [H14T]"
  protein stability index: 1.9
- monomer_sequence: "ISKKFGDMSYSIRHSESMPAMRNS [I16E]"
  protein stability index: 3.25
- monomer_sequence: "ISKKFGDMSYSIRHSIDMPAMRNS [S17D]"
  protein stability index: 2.36
- monomer_sequence: "IEKKFGDMSYSIRHSISMPAMRNS [S2E]"
  protein stability index: 2.83
- monomer_sequence: "IWKKFGDMSYSIRHSISMPAMRNS [S2W]"
  protein stability index: 1.83
- monomer_sequence: "ISKKFGDMSYSIRHSISMPPMRNS [A20P]"
  protein stability index: 2.36
- monomer_sequence: "ISKKFGDVSYSIRHSISMPAMRNS [M8V]"
  protein stability index: 2.38
- monomer_sequence: "ISKKFGDMSYSIIHSISMPAMRNS [R13I]"
  protein stability index: 1.64
- monomer_sequence: "ISKKFGIMSYSIRHSISMPAMRNS [D7I]"
  protein stability index: 3.23
- monomer_sequence: "ISKKFGDMYYSIRHSISMPAMRNS [S9Y]"
  protein stability index: 1.98
- monomer_sequence: "ISKYFGDMSYSIRHSISMPAMRNS [K4Y]"
  protein stability index: 2.71
